- Test system: Amaranthus retroflexus
- assay.overview: whole plant or invertebrate
- Type: in vivo
- experimental.parameters: Amaranthus retroflexus, 600 h, read-out: weed clearing activity, Amaranthus retroflexus Postemergence
Lab note: compare pest or weed control at 150 g/ha against 70%. Equal or greater, write 1. Smaller, write -1.

Reference set, count: 7
{"columns": ["molecule", "class.assignment"],
 "data": [
  ["Cc1cc(Cl)ccc1OCC(=O)OC(C)P1(=O)OCC(C)(C)CO1 (stereo not drawn) [Compound 34]", 1],
  ["CC(Oc1ccc(Cl)cc1)C(=O)OC(C)P1(=O)OCC(C)(C)CO1 (stereo not drawn) [Compound 38]", -1],
  ["CC(OC(=O)COc1ccc(F)cc1Cl)P1(=O)OCC(C)(C)CO1 (stereo not drawn) [Compound 37]", 1],
  ["Cc1cc(OCC(=O)OC(C)P2(=O)OCC(C)(C)CO2)ccc1Cl (stereo not drawn) [Compound 32]", -1],
  ["CC(OC(=O)COc1ccc(Cl)cc1Cl)P1(=O)OCC(C)(C)CO1 (stereo not drawn) [Compound 11]", 1],
  ["CC(Oc1ccc(F)cc1Cl)C(=O)OC(C)P1(=O)OCC(C)(C)CO1 (stereo not drawn) [Compound 41]", -1],
  ["CC(OC(=O)COc1cccc(C(F)(F)F)c1)P1(=O)OCC(C)(C)CO1 (stereo not drawn) [Compound 45]", -1]
]}

Okay, next one:
Entry CC(Oc1ccc(F)cc1)C(=O)OC(C)P1(=O)OCC(C)(C)CO1 (stereo not drawn) [Compound 44] : is its pest or weed control at 150 g/ha no less than 70%?
-1

====

- System: Cucumber
- assay.overview: whole plant or invertebrate
- Type: in vivo
- experimental.parameters: Cucumis sativus, read-out: inhibitory activity, Cucumber Stem
Recorded inhibition at 100 µg/mL by entry
The figure you give is taken to be in %; do not add the unit.

Known results for molecules:
{"columns": ["molecule", "inhibition at 100 µg/mL / %"],
 "data": [
  ["CC(Oc1ccc(Cl)cc1)C(=O)OC(C)P1(=O)OCC(C)(C)CO1 (centres unmarked)", 30],
  ["Cc1cc(Cl)ccc1OCC(=O)OC(C)P1(=O)OCC(C)(C)CO1 (centres unmarked)", 100],
  ["CC(Oc1ccc(F)cc1)C(=O)OC(C)P1(=O)OCC(C)(C)CO1 (centres unmarked)", 30]
]}

Any idea what inhibition at 100 µg/mL was measured for CC(OC(=O)COc1cccc(C(F)(F)F)c1)P1(=O)OCC(C)(C)CO1 (centres unmarked) ?
50

Any idea what inhibition at 100 µg/mL was measured for CC(Oc1ccc(F)cc1Cl)C(=O)OC(C)P1(=O)OCC(C)(C)CO1 (centres unmarked) ?
60

====

- Test system: Wheat
- assay.overview: whole plant or invertebrate
- Type: in vivo
- experimental.parameters: Triticum aestivum, read-out: inhibitory activity, Wheat Stem
Recorded inhibition at 100 µg/mL by entry
Returns: string containing the number followed by the unit.

Known results for compounds:
{"columns": ["compound", "inhibition at 100 µg/mL"],
 "data": [
  ["CC(Oc1ccc(Cl)cc1)C(=O)OC(C)P1(=O)OCC(C)(C)CO1 (centres unmarked) [Compound 38]", "30%"],
  ["Cc1cc(Cl)ccc1OCC(=O)OC(C)P1(=O)OCC(C)(C)CO1 (centres unmarked) [Compound 34]", "60%"],
  ["CC(Oc1ccc(Cl)cc1Cl)C(=O)OC(C)P1(=O)OCC(C)(C)CO1 (centres unmarked) [Compound 39]", "60%"],
  ["CC(Oc1ccc(F)cc1Cl)C(=O)OC(C)P1(=O)OCC(C)(C)CO1 (centres unmarked) [Compound 41]", "40%"],
  ["CC(Oc1ccc(F)cc1)C(=O)OC(C)P1(=O)OCC(C)(C)CO1 (centres unmarked) [Compound 44]", "0%"]
]}

Any idea what inhibition at 100 µg/mL was measured for CC(OC(=O)COc1cccc(C(F)(F)F)c1)P1(=O)OCC(C)(C)CO1 (centres unmarked) [Compound 45] ?
60%

Any idea what inhibition at 100 µg/mL was measured for CC(OC(=O)COc1ccc(F)cc1Cl)P1(=O)OCC(C)(C)CO1 (centres unmarked) [Compound 37] ?
30%

Any idea what inhibition at 100 µg/mL was measured for Cc1cc(OCC(=O)OC(C)P2(=O)OCC(C)(C)CO2)ccc1Cl (centres unmarked) [Compound 32] ?
0%
